# assay protocol: Cytotoxicity for MDCK cells
# Format: cell-based
# test conditions: dog, Cell: MDCK, no virus
# Description: As in the measurement of anti-viral activity, samples were added to the cells, and incubated with 50 µl of culture medium instead of the viral dilution. […] MDCK cells (derived from dog kidney) were cultured on 12-well plates using E-MEM supplemented by 10% fetal bovine serum. […] As in the above section 2), CC50 values for MDCK cells were determined.

| mol | CC50 at 3 days [µg/mL] |
| --- | --- |
| C[C@H]1CC[C@H]2C(C)(C)[C@@H](O)CC[C@]23Oc2c(c(O)cc4c2CNC4=O)C[C@]13C | 25 |
